- TARGET: KAT6A (Homo sapiens (Human), UniProt Q92794)
- Sequence (Q92794 whole entry): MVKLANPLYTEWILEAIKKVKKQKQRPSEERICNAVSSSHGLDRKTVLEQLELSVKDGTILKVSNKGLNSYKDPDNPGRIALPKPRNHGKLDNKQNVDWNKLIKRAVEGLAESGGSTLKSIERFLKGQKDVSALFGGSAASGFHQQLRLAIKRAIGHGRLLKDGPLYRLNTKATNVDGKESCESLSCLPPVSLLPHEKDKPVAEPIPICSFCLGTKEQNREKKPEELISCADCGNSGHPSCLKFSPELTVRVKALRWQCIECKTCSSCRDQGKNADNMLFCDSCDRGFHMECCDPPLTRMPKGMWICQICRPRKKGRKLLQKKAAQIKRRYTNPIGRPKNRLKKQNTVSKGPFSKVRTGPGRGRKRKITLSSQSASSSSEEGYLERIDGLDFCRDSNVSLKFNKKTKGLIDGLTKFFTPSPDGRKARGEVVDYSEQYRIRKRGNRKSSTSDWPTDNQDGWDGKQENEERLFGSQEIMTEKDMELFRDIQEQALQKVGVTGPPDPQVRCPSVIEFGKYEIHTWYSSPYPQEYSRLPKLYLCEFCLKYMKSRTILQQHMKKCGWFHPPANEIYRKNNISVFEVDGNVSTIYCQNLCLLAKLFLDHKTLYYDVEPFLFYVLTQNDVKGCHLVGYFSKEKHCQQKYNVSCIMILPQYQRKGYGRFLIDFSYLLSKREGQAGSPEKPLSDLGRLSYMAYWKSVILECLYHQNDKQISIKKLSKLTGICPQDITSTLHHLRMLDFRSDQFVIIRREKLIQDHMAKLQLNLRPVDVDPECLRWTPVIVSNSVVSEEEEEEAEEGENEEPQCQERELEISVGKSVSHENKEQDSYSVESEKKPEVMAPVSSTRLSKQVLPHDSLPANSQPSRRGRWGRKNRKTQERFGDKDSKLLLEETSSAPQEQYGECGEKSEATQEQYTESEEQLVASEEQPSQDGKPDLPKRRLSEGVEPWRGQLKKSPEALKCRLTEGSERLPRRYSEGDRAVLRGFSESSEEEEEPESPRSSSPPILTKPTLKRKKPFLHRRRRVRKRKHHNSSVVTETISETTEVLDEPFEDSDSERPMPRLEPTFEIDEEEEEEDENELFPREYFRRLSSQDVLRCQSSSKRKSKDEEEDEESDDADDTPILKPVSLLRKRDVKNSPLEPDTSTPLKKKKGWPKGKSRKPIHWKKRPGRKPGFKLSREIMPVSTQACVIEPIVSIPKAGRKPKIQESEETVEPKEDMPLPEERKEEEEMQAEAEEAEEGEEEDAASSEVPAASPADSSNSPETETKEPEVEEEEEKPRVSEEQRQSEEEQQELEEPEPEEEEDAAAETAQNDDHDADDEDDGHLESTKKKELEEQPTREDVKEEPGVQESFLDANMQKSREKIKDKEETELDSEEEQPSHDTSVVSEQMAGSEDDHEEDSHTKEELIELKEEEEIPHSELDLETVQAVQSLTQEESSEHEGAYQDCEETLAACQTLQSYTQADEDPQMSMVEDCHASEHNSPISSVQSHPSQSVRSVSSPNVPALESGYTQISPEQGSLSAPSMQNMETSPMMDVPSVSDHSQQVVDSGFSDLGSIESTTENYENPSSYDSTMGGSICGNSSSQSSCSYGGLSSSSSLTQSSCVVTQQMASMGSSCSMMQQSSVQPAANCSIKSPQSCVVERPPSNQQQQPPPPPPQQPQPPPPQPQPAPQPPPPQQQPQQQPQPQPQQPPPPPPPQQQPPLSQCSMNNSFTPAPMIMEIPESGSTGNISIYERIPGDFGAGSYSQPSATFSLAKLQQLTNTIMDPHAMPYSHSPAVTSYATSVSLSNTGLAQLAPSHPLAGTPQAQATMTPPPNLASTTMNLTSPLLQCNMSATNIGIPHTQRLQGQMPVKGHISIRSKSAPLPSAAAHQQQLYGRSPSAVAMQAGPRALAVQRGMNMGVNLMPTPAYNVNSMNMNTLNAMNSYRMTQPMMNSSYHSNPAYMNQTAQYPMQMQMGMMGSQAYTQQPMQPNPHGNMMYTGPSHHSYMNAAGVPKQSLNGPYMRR
- TEST_NAME: KAT assay (SAMDI mass spectrometry), KAT6A;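 note: Baculovirus-expressed KAT6A acetylating histone H3 (1-21) peptide (2 µM), 30-60 min at room temperature, % product conversion fitted to Morrison equation for tight-binding competitive inhibitors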
- Assay type: biochemical
- ASSAY_CONTEXT: read-out: KAT6a Ki at 10 μM AcCoA; 10 μM AcCoA
Labelling field: enter yes if recorded Ki is less than 6 nM. Enter no if it equals or exceeds that cut-off.

Threshold test, Ki < 6 nM: COCc1ccccc1S(=O)(=O)Nc1noc2cc(Cn3cccn3)cc(OC)c12
no

Take the molecule COc1cc(Cn2cccn2)cc2onc(NS(=O)(=O)c3cc(C)cc(F)c3)c12 and say whether its Ki is less than 6 nM.
no

* * *

- TARGET: KAT8 (Homo sapiens (Human), UniProt Q9H7Z6)
- Sequence (Q9H7Z6 whole entry): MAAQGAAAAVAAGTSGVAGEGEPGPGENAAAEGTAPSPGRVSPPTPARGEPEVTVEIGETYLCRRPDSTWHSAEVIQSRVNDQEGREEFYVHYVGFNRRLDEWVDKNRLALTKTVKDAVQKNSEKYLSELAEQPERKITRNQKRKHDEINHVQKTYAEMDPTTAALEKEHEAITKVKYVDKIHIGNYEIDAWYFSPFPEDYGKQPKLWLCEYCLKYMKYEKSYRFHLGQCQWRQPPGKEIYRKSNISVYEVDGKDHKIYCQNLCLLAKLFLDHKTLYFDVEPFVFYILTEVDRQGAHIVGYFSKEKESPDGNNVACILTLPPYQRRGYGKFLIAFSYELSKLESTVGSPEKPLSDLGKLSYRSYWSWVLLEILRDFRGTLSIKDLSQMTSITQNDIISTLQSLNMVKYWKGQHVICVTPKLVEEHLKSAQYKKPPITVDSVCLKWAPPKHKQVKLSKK
- TEST_NAME: KAT assay (SAMDI mass spectrometry), KAT8
- Format: biochemical
- ASSAY_CONTEXT: read-out: KAT8 Ki at 1 μM AcCoA
Attribute: pKi
The scale used: pKi is minus the common logarithm of the concentration in molar units.

Recorded results for 5 compounds are shown here.
COMPOUND: COc1ccc(C2CC2)cc1S(=O)(=O)Nc1noc2cc(Cn3cccn3)cc(OC)c12 [Example 97]
TARGET: KAT8 (Homo sapiens (Human), UniProt Q9H7Z6)
MEASURED_VALUE: 5.82
--
COMPOUND: COc1ccc(OC)c(S(=O)(=O)Nc2noc3cc(Cn4cccn4)cc(OC)c23)c1 [Example 19]
TARGET: KAT8 (Homo sapiens (Human), UniProt Q9H7Z6)
MEASURED_VALUE: 6.02
--
COMPOUND: COc1cccc(OC)c1S(=O)(=O)Nc1noc2cc(Cn3nccn3)cc(OC)c12 [Example 23]
TARGET: KAT8 (Homo sapiens (Human), UniProt Q9H7Z6)
MEASURED_VALUE: 5.71
--
COMPOUND: COc1cc(Cn2cccn2)cc2onc(NS(=O)(=O)c3c(C)ccc4cccnc34)c12 [Example 73]
TARGET: KAT8 (Homo sapiens (Human), UniProt Q9H7Z6)
MEASURED_VALUE: 5.49
--
COMPOUND: COc1cccc(OC)c1S(=O)(=O)Nc1noc2cc(Cn3cccn3)cc(F)c12 [Example 94]
TARGET: KAT8 (Homo sapiens (Human), UniProt Q9H7Z6)
MEASURED_VALUE: 5.49

The compound listed as COc1ccc(S(=O)(=O)Nc2noc3cc(Cn4cccn4)cc(OC)c23)c(OC)c1 [Example 5] shows pKi equal to 6.18

The compound identified as COc1cc(Br)cc(OC)c1S(=O)(=O)Nc1noc2cc(Cn3cccn3)cc(OC)c12 [Example 8] registered its pKi at 5.54

Value of measured pKi for the entry COc1cc(Cn2cccn2)cc2onc(NS(=O)(=O)c3cccc(C)c3C#N)c12 [Example 76] : 4.90

* * *

- TARGET: KAT7 (Homo sapiens (Human), UniProt O95251)
- Sequence (O95251 whole entry): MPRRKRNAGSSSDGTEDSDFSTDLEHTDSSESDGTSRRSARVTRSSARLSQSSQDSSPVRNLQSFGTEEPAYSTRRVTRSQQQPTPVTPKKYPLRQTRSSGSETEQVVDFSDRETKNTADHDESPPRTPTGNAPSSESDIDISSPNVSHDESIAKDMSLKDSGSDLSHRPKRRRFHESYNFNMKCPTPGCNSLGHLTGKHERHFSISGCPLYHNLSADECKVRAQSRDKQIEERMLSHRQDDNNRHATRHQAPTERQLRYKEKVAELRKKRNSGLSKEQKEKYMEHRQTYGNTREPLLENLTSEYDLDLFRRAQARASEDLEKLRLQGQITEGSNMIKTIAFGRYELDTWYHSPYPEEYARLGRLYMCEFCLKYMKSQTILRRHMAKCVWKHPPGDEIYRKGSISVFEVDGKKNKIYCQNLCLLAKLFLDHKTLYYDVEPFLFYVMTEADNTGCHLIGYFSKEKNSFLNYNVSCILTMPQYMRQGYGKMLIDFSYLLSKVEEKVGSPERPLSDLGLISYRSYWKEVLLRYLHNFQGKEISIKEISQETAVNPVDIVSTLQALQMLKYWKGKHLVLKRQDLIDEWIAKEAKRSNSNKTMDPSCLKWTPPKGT
- TEST_NAME: KAT assay (SAMDI mass spectrometry), KAT7;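 note: Baculovirus-expressed enzyme acetylating a histone peptide at room temperature, percent conversion from product and substrate peak areas, Ki from a Morrison tight-binding competitive fit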
- Assay type: biochemical
- ASSAY_CONTEXT: read-out: KAT7 Ki at 1 μM AcCoA
pKi: −log10 of the molar value.
Decision: pKi compared against 6; not below it gives True, below it gives False.

STRUCTURE_SMILES: COc1cccc(OC)c1S(=O)(=O)Nc1noc2cc(Cn3cccn3)cc(OC(C)C)c12
DISCRETE_LABEL: False
//
STRUCTURE_SMILES: COc1ccc(S(=O)(=O)Nc2noc3cc(Cn4cccn4)cc(OC)c23)cc1C
DISCRETE_LABEL: True
//
STRUCTURE_SMILES: COc1cccc(OC)c1S(=O)(=O)Nc1noc2cc(Cn3cccn3)c(C3CC3)cc12
DISCRETE_LABEL: True
//
STRUCTURE_SMILES: COc1ccc(C2CC2)cc1S(=O)(=O)Nc1noc2cc(Cn3cccn3)cc(OC)c12
DISCRETE_LABEL: True
//
STRUCTURE_SMILES: COc1cc(Cn2cccn2)cc2onc(NS(=O)(=O)c3cc(F)c(F)cc3F)c12
DISCRETE_LABEL: True

Attention now turns to another entry.
In plain terms: is recorded pKi at least 6 for CCc1ccc(OC)c(S(=O)(=O)Nc2noc3cc(Cn4cccn4)cc(OC)c23)c1 ?
True
